Protocol: NFAT Signaling Pathway (AID 444);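 further: carbachol stimulus at about its EC50 of 1 µM final; on the % scale 0 is the no-effect control and ±100 the full control effect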
Run Parameters: Jurkat NFAT-bla M1, carbachol, beta-lactamase ratio, 5 h; at 7.69 µM (top of the series) unless noted
Protocol: NCGC Assay Overview: The nuclear factor of activated T cells (NFAT) family of transcription factors has been found primarily in most immune system cells and some other non-immune cells. NFAT plays the immunomodulatory role, primarily in T-cell activation and differentiation. […] NCGC Assay Protocol Summary: The cells were prepared in RPMI 1640 medium containing 0.1% dialyzed FBS and 25 mM HEPES at 1.6 x 10^6cell/ml. […] The %Activity was determined from the ratio of 460nm/530nm. […]
Results filed as inconclusive are left out.

Substance Smiles: Cc1cc2c(SCc3ccccc3Cl)nc(N)nc2nc1C
activity change, negative = inhibition (%): 15
--
Substance Smiles: Cc1cc(Cl)nc(NC(=O)CSc2ccc(Cl)cc2)n1
activity change, negative = inhibition (%): 16.8
--
Substance Smiles: COc1cccc(CSCC(=O)O)c1
activity change, negative = inhibition (%): 6.63
--
Substance Smiles: CCN=C(N)CSS(=O)(=O)O
activity change, negative = inhibition (%): -7.3
--
Substance Smiles: CC(C)CNc1nc2ncnc(N)c2[nH]1
activity change, negative = inhibition (%): 1.95
--
Substance Smiles: CC1(C)[C@@H](CC(=O)O)CCC[C@@H]1CC(=O)O
activity change, negative = inhibition (%): 5.58
--
Substance Smiles: CC(C)(C)NC[C@@H](O)c1ccc(O)c(CO)n1
activity change, negative = inhibition (%): 10.1

---

System: Thyroid hormone receptor beta (Homo sapiens) (UniProt P10828)
Sequence (P10828 whole entry, looked up): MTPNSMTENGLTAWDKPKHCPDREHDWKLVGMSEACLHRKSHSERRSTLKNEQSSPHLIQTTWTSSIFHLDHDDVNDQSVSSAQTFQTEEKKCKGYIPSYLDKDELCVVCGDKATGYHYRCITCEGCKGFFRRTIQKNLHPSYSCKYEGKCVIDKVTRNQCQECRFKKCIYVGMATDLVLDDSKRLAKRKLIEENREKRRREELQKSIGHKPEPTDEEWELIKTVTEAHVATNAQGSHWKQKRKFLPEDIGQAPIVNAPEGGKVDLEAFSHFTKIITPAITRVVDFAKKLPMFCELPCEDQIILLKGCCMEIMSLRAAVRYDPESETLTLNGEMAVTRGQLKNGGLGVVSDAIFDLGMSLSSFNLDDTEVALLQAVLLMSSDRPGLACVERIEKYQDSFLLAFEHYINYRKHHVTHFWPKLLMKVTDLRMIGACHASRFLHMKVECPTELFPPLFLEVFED
Protocol: qHTS assay for small molecule agonists of thyroid hormone receptor beta signaling (AID 588545);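 further: 0% = DMSO only and 100% = 10 nM T3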
Run Parameters: TR-UAS-bla GripTite HEK 293, beta-lactamase ratio, agonist mode, 18 h; series mostly up to 76.7 µM
Inconclusive results are not listed. The source made the active and inactive calls. Calls follow the shape of the full dose curve.

Compound: OCC(CO)(CBr)CBr
System: Thyroid hormone receptor beta (Homo sapiens) (UniProt P10828)
outcome: inactive

Compound: Cc1c(C(=O)O)c(O)cc2c1C(=O)c1c(O)c([C@H]3O[C@H](CO)[C@@H](O)[C@H](O)[C@H]3O)c(O)c(O)c1C2=O
System: Thyroid hormone receptor beta (Homo sapiens) (UniProt P10828)
outcome: inactive

Compound: NC(=O)c1ccc([N+](=O)[O-])cc1
System: Thyroid hormone receptor beta (Homo sapiens) (UniProt P10828)
outcome: inactive

Compound: CCCCC(CC)COP(=O)(OCC(CC)CCCC)OCC(CC)CCCC (stereo not given)
System: Thyroid hormone receptor beta (Homo sapiens) (UniProt P10828)
outcome: inactive

Compound: O=C(OCc1ccccc1)c1ccccc1O
System: Thyroid hormone receptor beta (Homo sapiens) (UniProt P10828)
outcome: inactive

Compound: Nc1cc([N+](=O)[O-])ccc1O
System: Thyroid hormone receptor beta (Homo sapiens) (UniProt P10828)
outcome: inactive

Compound: C=C(C#N)C(=O)OCC
System: Thyroid hormone receptor beta (Homo sapiens) (UniProt P10828)
outcome: inactive

Compound: CC(C)S
System: Thyroid hormone receptor beta (Homo sapiens) (UniProt P10828)
outcome: inactive

Compound: CC/C=C/C/C=C/C/C=C/CCCCCCCC(=O)OCC
System: Thyroid hormone receptor beta (Homo sapiens) (UniProt P10828)
outcome: inactive

Compound: O=Nc1ccc(Nc2ccccc2)cc1
System: Thyroid hormone receptor beta (Homo sapiens) (UniProt P10828)
outcome: inactive

Compound: O=C(Cl)c1ccc([N+](=O)[O-])cc1
System: Thyroid hormone receptor beta (Homo sapiens) (UniProt P10828)
outcome: inactive

Compound: Brc1cc(Oc2cc(Br)c(Br)c(Br)c2Br)c(Br)c(Br)c1Br
System: Thyroid hormone receptor beta (Homo sapiens) (UniProt P10828)
outcome: inactive

Compound: c1ccc2c(c1)ccc1ccccc12
System: Thyroid hormone receptor beta (Homo sapiens) (UniProt P10828)
outcome: inactive

Compound: CCOc1ccc2nc(N)sc2c1
System: Thyroid hormone receptor beta (Homo sapiens) (UniProt P10828)
outcome: inactive

Compound: Oc1cc2c(cc1O)[C@H]1c3ccc(O)c(O)c3OC[C@@]1(O)C2
System: Thyroid hormone receptor beta (Homo sapiens) (UniProt P10828)
outcome: inactive

Compound: CC(=O)OCc1ccc2c(c1)OCO2
System: Thyroid hormone receptor beta (Homo sapiens) (UniProt P10828)
outcome: inactive

Compound: C=CC1CO1 (stereo not given)
System: Thyroid hormone receptor beta (Homo sapiens) (UniProt P10828)
outcome: inactive

Compound: Cc1c(N)cccc1Cl
System: Thyroid hormone receptor beta (Homo sapiens) (UniProt P10828)
outcome: inactive

Compound: c1ccc(COCc2ccccc2)cc1
System: Thyroid hormone receptor beta (Homo sapiens) (UniProt P10828)
outcome: inactive

Compound: C=CC(C)(O)CCCC(C)CCCC(C)CCCC(C)C (stereo not given)
System: Thyroid hormone receptor beta (Homo sapiens) (UniProt P10828)
outcome: inactive

Compound: c1ccc(SCCSc2ccccc2)cc1
System: Thyroid hormone receptor beta (Homo sapiens) (UniProt P10828)
outcome: inactive

Compound: CC(=O)CC(=O)Nc1ccccc1
System: Thyroid hormone receptor beta (Homo sapiens) (UniProt P10828)
outcome: inactive

Compound: Oc1ccc2c(c1)OCO2
System: Thyroid hormone receptor beta (Homo sapiens) (UniProt P10828)
outcome: inactive

Compound: CCCCCCCCC1CO1 (stereo not given)
System: Thyroid hormone receptor beta (Homo sapiens) (UniProt P10828)
outcome: inactive

Compound: Nc1cnn([C@@H]2O[C@H](CO)[C@@H](O)[C@H]2O)c(=O)n1
System: Thyroid hormone receptor beta (Homo sapiens) (UniProt P10828)
outcome: inactive

Compound: OC1CCCCC1
System: Thyroid hormone receptor beta (Homo sapiens) (UniProt P10828)
outcome: inactive

Compound: O=c1[nH]ncc2ccccc12
System: Thyroid hormone receptor beta (Homo sapiens) (UniProt P10828)
outcome: inactive

Compound: C=Cc1cccc(C)c1
System: Thyroid hormone receptor beta (Homo sapiens) (UniProt P10828)
outcome: inactive

Compound: Cc1ccc2ccc3cccc4ccc1c2c34
System: Thyroid hormone receptor beta (Homo sapiens) (UniProt P10828)
outcome: inactive

Compound: Nc1ccc2c(c1)C(=O)c1ccccc1C2=O
System: Thyroid hormone receptor beta (Homo sapiens) (UniProt P10828)
outcome: inactive
